- Test method notes: in vitro
- Run parameters: human, hela cells, % viability
Quantity kind: viability at 28.5 h, 10 µM

[[record]]
compound = "CC(=O)N1CC[C@H]2NC(=O)CNC(=O)C3(CCCC[C@H]2C1)CCN(C(=O)c1n[nH]c2c1CCC2)CC3 [CBK292012]"
observed_value = "102%"

[[record]]
compound = "O=C(C1CCC1)N1CCC(n2c(=O)[nH]c3ccccc32)CC1 [CBK149709]"
observed_value = "108%"

[[record]]
compound = "COc1ccc2[nH]cc(CCNC(=O)c3cccnc3)c2c1 [CBK122722]"
observed_value = "101%"

[[record]]
compound = "O=C(O)Cc1sc(-c2ccc(Cl)cc2)nc1O [CBK067730]"
observed_value = "93.1%"

[[record]]
compound = "CCCn1ccnc1CNc1nc(C(C)(C)C)nc2c1cnn2C [CBK306739]"
observed_value = "91.3%"

[[record]]
compound = "CCc1ccc2nc3c(cc2c1)CNCCO3 [CBK281940]"
observed_value = "91.6%"

[[record]]
compound = "COc1cc(CC(=O)N2CCc3c(sc4ncnc(N)c34)C2)ccc1C [CBK306013]"
observed_value = "103%"

[[record]]
compound = "COc1ccccc1C1CCC(NCCCC(=O)c2ccc(F)cc2)CC1 (centres unmarked) [CBK015965C]"
observed_value = "105%"

[[record]]
compound = "CC(=O)N[C@H]1C[C@@H](Cc2cc(CCO)on2)C1(C)C [CBK289243]"
observed_value = "99.7%"

[[record]]
compound = "O=C(O)CCN1C(=O)/C(=C/c2ccc(C(=O)O)cc2)SC1=S [CBK262785]"
observed_value = "93.2%"

[[record]]
compound = "Nc1cc2c(cc1Cl)C(=O)NC2=O [CBK028783]"
observed_value = "101%"

[[record]]
compound = "CCNC(=O)c1ccc(-c2ccc(S(C)(=O)=O)cc2)nc1 [CBK158882]"
observed_value = "91.9%"

[[record]]
compound = "COc1cccc(NC(=O)CN2CCC(NC(=O)c3cccs3)CC2)c1 [CBK305800]"
observed_value = "96.3%"

[[record]]
compound = "O=C(NCc1ccncc1)c1nccnc1-c1ccc(COc2ccccc2)cc1 [CBK050836]"
observed_value = "88.1%"

[[record]]
compound = "O=C(Nc1ccc(C(=O)Nc2cccc(-c3nc4ccccc4o3)c2)cc1)c1ccc([N+](=O)[O-])cc1 [CBK262606]"
observed_value = "96.6%"

[[record]]
compound = "O=C(Cn1c(NCCCO)nc2ccccc21)c1cccs1 [CBK023894B]"
observed_value = "96.5%"

[[record]]
compound = "O=C(CC1CCCCC1)N1CCC2(CCCNC2)C1 (centres unmarked) [CBK137154C]"
observed_value = "91.5%"

[[record]]
compound = "Cc1ccc(C(=O)N2CCN(Cc3ccccc3)CC2)cn1 [CBK200170]"
observed_value = "93.6%"

[[record]]
compound = "CN1CCN(CCC(=O)N2c3ccccc3Sc3ccc(C(F)(F)F)cc32)CC1 [CBK278221C]"
observed_value = "103%"

[[record]]
compound = "Cc1nc2ccc(C(=O)NC(C)(C)CN3CCCC(C)C3)cc2[nH]1 (centres unmarked) [CBK282629]"
observed_value = "85.3%"

